Each item that follows carries a reported inhibition at 1 µM.
Target: human recombinant adrenergic α2A receptor (Homo sapiens, UniProt P08913)
Construct: expressed in transfected cells; host or cells: insect Sf9 cells
Sequence (P08913 whole entry): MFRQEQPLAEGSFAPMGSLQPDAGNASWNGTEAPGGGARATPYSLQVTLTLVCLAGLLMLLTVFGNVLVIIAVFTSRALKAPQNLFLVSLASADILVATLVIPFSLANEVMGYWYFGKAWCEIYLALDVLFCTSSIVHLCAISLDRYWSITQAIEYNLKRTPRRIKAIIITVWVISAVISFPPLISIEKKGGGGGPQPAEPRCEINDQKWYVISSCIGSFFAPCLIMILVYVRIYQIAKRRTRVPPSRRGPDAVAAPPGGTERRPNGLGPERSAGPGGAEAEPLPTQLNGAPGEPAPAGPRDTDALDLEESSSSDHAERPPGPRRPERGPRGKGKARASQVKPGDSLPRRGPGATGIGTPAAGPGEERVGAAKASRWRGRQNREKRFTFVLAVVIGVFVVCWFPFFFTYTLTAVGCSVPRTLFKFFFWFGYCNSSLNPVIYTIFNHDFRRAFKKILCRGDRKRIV
Experiment: Adrenergic α2A radioligand binding ([3H]MK-912)
Details: 1 μM; read-out: Adrenergic α2A, inhibition of ligand binding (1 μM)
Give just the numeric value; % need not be written.

Known inhibition at 1 µM results, listed for orientation:
Cc1ccc(CCCn2c3c(c4cc(Cl)ccc42)C2CCC(C3)N2C)cn1 (centres unmarked); 33
CN1[C@@H]2CC[C@H]1c1c(n(CC(C)(O)c3ccc(F)cc3)c3ccccc13)C2 (some centres unmarked); 25
CN1C2CCC1c1c(n(CCc3ccc(Cl)cc3)c3ccc(F)cc13)C2 (centres unmarked); 69
Cc1ccc2c(c1)c1c(n2CCc2cnc(C)nc2)CC2CCC1N2C (centres unmarked); -5

Kindly review the next compound as well.
[ask] Tell me inhibition at 1 µM of Cc1ccc(C#Cn2c3c(c4cc(Cl)ccc42)C2CCC(C3)N2C)cn1 (centres unmarked) when tested on human recombinant adrenergic α2A receptor (Homo sapiens, UniProt P08913).
[reply] 93

---

Biological target: human recombinant dopamine D2L receptor (Homo sapiens, UniProt P14416)
Construct: expressed in transfected cells; host or cells: CHO cells
Sequence (P14416 whole entry): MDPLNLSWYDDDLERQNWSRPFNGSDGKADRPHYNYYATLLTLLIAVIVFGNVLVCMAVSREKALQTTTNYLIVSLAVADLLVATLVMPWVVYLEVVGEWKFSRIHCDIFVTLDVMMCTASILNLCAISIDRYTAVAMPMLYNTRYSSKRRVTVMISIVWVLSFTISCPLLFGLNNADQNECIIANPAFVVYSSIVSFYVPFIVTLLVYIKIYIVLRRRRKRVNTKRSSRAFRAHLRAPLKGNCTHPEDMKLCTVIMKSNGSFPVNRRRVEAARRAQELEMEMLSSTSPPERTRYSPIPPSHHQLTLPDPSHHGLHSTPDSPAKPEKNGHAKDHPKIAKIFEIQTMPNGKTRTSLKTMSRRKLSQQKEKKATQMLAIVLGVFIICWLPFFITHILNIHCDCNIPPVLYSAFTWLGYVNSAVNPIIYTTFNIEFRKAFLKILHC
Assay: Dopamine D2L radioligand binding ([3H]Spiperone)
Details: read-out: Dopamine (1 μM) D2L, inhibition of ligand binding
Each item that follows carries a reported inhibition at 1 µM.
Give just the numeric value; % need not be written.

Known inhibition at 1 µM results, listed for orientation:
C/C(=C\n1c2c(c3cc(C)ccc31)C1CCC(C2)N1C)c1cccnc1 (stereo not drawn); 8
Cc1ccc2c(c1)c1c(n2CC(=O)N2CCCCC2)CC2CCC1N2C (stereo not drawn); -19
Cc1cncc(CCn2c3c(c4cc(Cl)ccc42)C2CCC(C3)N2C)c1 (stereo not drawn); 9
Cc1ccc(C#Cn2c3c(c4cc(Cl)ccc42)C2CCC(C3)N2C)cn1 (stereo not drawn); -4
Cc1ccc(CCCn2c3c(c4cc(Cl)ccc42)C2CCC(C3)N2C)cn1 (stereo not drawn); -5

[ask] Query inhibition at 1 µM for CN1C2CCC1c1c(n(CC(=O)c3ccccc3)c3ccc(Cl)cc13)C2 (stereo not drawn)
[reply] 14

[ask] Query inhibition at 1 µM for CN1C2CCC1c1c(n(CC(=O)N3CCOCC3)c3ccc(Cl)cc13)C2 (stereo not drawn)
[reply] 6

[ask] Query inhibition at 1 µM for Cc1ccc2c(c1)c1c(n2C(=O)Cc2ccc(Cl)cc2)CC2CCC1N2C (stereo not drawn)
[reply] 2

[ask] Query inhibition at 1 µM for Cc1ccc2c(c1)c1c(n2CCCc2ccc(Cl)cc2)CC2CCC1N2C (stereo not drawn)
[reply] -2

[ask] Query inhibition at 1 µM for C/C(=C/n1c2c(c3ccccc31)[C@@H]1CC[C@H](C2)N1C)c1ccc(F)cc1
[reply] 19

[ask] Query inhibition at 1 µM for Cc1ccc2c(c1)c1c(n2CCc2cnc(C)nc2)CC2CCC1N2C (stereo not drawn)
[reply] 9

[ask] Query inhibition at 1 µM for CN1[C@@H]2CC[C@H]1c1c(n(CC(C)(O)c3ccc(F)cc3)c3ccccc13)C2 (stereo partly drawn)
[reply] -6

[ask] Query inhibition at 1 µM for CN1C2CCC1c1c(n(CCc3ccc(C(F)(F)F)nc3)c3ccc(Cl)cc13)C2 (stereo not drawn)
[reply] -0.875

[ask] Query inhibition at 1 µM for CN1C2CCC1c1c(n(CCC(=O)N3CCCC3)c3ccc(Cl)cc13)C2 (stereo not drawn)
[reply] 10

[ask] Query inhibition at 1 µM for COc1ccc(C(C)(O)Cn2c3c(c4cc(Cl)ccc42)C2CCC(C3)N2C)cc1F (stereo not drawn)
[reply] 7

[ask] Query inhibition at 1 µM for C/C(=C\n1c2c(c3cc(Cl)ccc31)C1CCC(C2)N1C)c1ccc(F)cc1 (stereo not drawn)
[reply] 80

[ask] Query inhibition at 1 µM for CN1C2CCC1c1c(n(CCc3cncc(Cl)c3)c3ccc(Cl)cc13)C2 (stereo not drawn)
[reply] -6

[ask] Query inhibition at 1 µM for CN1C2CCC1c1c(n(CCc3ccc(C(F)(F)F)nc3)c3cc(F)c(Cl)cc13)C2 (stereo not drawn)
[reply] 4
